# Tested on: HCC 2998
# assayProtocol: NCI tumour cell line growth inhibition, 48 h
Active and inactive are the calls of the source. Rule as the data show it: active = GI50 up to about 1.1 µM and inactive = higher.
Permitted responses: active, inactive

INSERT INTO assay_data (molecule, classlabel) VALUES
  ('Cc1ccc(S(=O)(=O)OC(C=O)C(O)C(O)COC(c2ccccc2)(c2ccccc2)c2ccccc2)cc1 (stereo unspecified)', 'inactive'),
  ('C#C[C@]1(O)CCCC2=CC(=O)CC[C@@]21C', 'inactive'),
  ('Nc1nc(N)c2c(-c3ccccc3)ccnc2n1', 'inactive');

Hi team, can someone confirm the assay call for CN(C)C1(N(C)C)Oc2c(c(=O)n(C)c(=O)n2C)C(c2ccc(F)cc2)C1(F)F (stereo unspecified) ? inactive

Kindly provide the recorded test outcome for the following molecule: CS(=O)(=O)C1(Br)S(=O)(=O)OCCOS1(=O)=O inactive

Hey, what did the test say about O=C1c2ccccc2C(=O)c2c1nc1ccccc1c2-c1cncc(-c2c3c(nc4ccccc24)C(=O)c2ccccc2C3=O)c1 ? inactive

====

# Tested on: SK-OV-3
# assayProtocol: NCI tumour cell line growth inhibition, 48 h
Active and inactive are the calls of the source. Rule as the data show it: active = GI50 up to about 1.1 µM and inactive = higher.
The categories you may choose from are active, inactive

INSERT INTO results (compound, classlabel) VALUES
  ('Cc1ccccc1-c1nc2c(C(=O)NCCN(C)C)cccc2[nH]1', 'inactive'),
  ('OCc1c2c(cc3c1CC1(C3)Cc3cc4c(c(CO)c3C1)CCC4)CCC2', 'inactive'),
  ('c1ccc(CCN2CCOCC2)nc1', 'inactive');

// return assay outcome for CC1=C(C(=O)Nc2ccccc2)C(c2ccc(N(C)C)cc2)C(C(=O)Nc2ccccc2)=C(C)N1 inactive

Assay result, entry CC(=O)c1ccc(Nc2nc3ccccc3c3occc23)cc1 — outcome? inactive

Outcome logged for Cc1nc(N)nc(S)c1CCCNc1ccccc1 in this assay: inactive

Assay result, entry CC(C)(/N=N/C(C)(C)C(=N)N)C(=N)N — outcome? inactive

Hey, what did the test say about COc1cc2c(c(OC3OC(CO)C(O)C(O)C3O)c1)C(=O)CC(c1ccc(O)cc1)O2 (stereo unspecified) ? inactive

====

# Tested on: Malme-3M
# assayProtocol: NCI tumour cell line growth inhibition, 48 h
The source made the active and inactive calls. No stated cut-off is given here; in the data, active = GI50 up to about 1.1 µM and inactive = higher.
Respond only with the outcome that fits, drawn from true (1) (active), false (0) (inactive)

# example entries with known answers
INSERT INTO results (molecule, classlabel) VALUES
  ('CC(=O)O[C@@H]1CC[C@@]2(C)C(=O)C34C[C@@]5(C)C([C@@H](C)CCCC(C)C)CCC5(C)[C@](O)(O3)C(=O)[C@H]4C2C1(C)C (stereo partly specified)', 'false (0)'),
  ('Nc1nc(N)c2c(-c3ccccc3)ccnc2n1', 'false (0)'),
  ('CCOC(=O)C1=C(C)NC2=C(C(=O)N(c3ccccc3)C2c2ccccc2)C1c1ccccc1 (stereo unspecified)', 'false (0)');

Next molecule, please.
Outcome? COc1cc2c(/C=C3/C(=O)Nc4ccc(Cl)cc43)c(Cl)n(Cc3ccccc3)c2cc1C false (0)

====

# System: UO-31
# assayProtocol: NCI tumour cell line growth inhibition, 48 h
Active and inactive are the calls of the source. Rule as the data show it: active = GI50 up to about 1.1 µM and inactive = higher.
quantityMeasured: GI50

Past entries and their recorded results:
INSERT INTO results (compound, assayedsystem, reportedresult) VALUES
  ('CCC[C@H](C)C[C@H](C)C[C@H](C)/C=C(\C)[C@@H](O)[C@@H](C)C(=O)CC', 'UO-31', '23 µM (inactive)'),
  ('Cc1ccc(NC(=O)c2cccc([N+](=O)[O-])c2O)c(C)c1', 'UO-31', '3.31 µM (inactive)'),
  ('COc1nc(OC)nc(Sc2ccc(Sc3ccc(Sc4nc(OC)nc(OC)n4)cc3)cc2)n1', 'UO-31', '> 100 µM (inactive)'),
  ('COc1cc(C2SCC(=O)N2c2ccc(-n3c(-c4ccccc4)nc4ccccc4c3=O)cc2)ccc1O (centres undefined)', 'UO-31', '11.8 µM (inactive)'),
  ('CC1(C)O[C@@H](CP(c2cccc3ccccc23)c2cccc3ccccc23)[C@H](CP(c2cccc3ccccc23)c2cccc3ccccc23)O1', 'UO-31', '> 100 µM (inactive)');

// batch mode: one GI50 value per listed entry
1. CC1=C(C(=O)Nc2ccccc2)C(c2ccc(N(C)C)cc2)C(C(=O)Nc2ccccc2)=C(C)N1
2. CCCC1c2c(ccc3ccccc23)Oc2ccc3ccccc3c21
3. CCOC(=O)c1c(C)[nH]c2c1c(CN(C)C)c(O)c1nc(C)c(C)nc12
4. COc1c2c(cc3c1C(=O)c1c(O)cccc1C3=O)CC(O)CC2 (centres undefined)

["2.37 µM (inactive)", "> 100 µM (inactive)", "29.5 µM (inactive)", "56.9 µM (inactive)"]

====

# System: ACHN
# assayProtocol: NCI tumour cell line growth inhibition, 48 h
Active and inactive are the calls of the source. Rule as the data show it: active = GI50 up to about 1.1 µM and inactive = higher.
Please provide measured GI50 for the entries that follow.

Please review the entries below; each comes with its answer.
INSERT INTO assay_data (compound, quantitymeasured, reportedresult) VALUES
  ('CC1CCC2(NC1)OC1CC3[C@@H]4CC=C5C=CCC[C@]5(C)C4CC[C@]3(C)C1C2C (some centres not stated)', 'GI50', '22.9 µM (inactive)'),
  ('C=C(c1ccccc1)c1cc2c(=O)[nH]ccc2n1C', 'GI50', '35.7 µM (inactive)'),
  ('Cc1cc(Br)ccc1/N=N/C1C(=O)ON=C1c1ccccc1 (configuration not stated)', 'GI50', '63.4 µM (inactive)'),
  ('CC(=O)N1C(=O)C(=O)c2cc(Cl)ccc21', 'GI50', '> 100 µM (inactive)'),
  ('Cc1cc2cc3ccccc3cc2c(=O)[nH]1', 'GI50', '> 10 µM (inactive)'),
  ('CC(C)C(=O)C(C)(C)CCc1ccccn1', 'GI50', '> 100 µM (inactive)');

Param item = OC(COc1ccccc1)CN1CCCCC1 (configuration not stated) ; retrieve measured GI50. > 100 µM (inactive)

====

# System: KM12
# assayProtocol: NCI tumour cell line growth inhibition, 48 h
Active and inactive are the calls of the source. Cut-off read from the data, not from the text of the source: active = GI50 up to about 1.1 µM and inactive = higher. Residues, ends and D or L forms follow the SMILES beside them. *: point of attachment. Bn = c1ccc(C*)cc1
Mark one answer only. Choices: t (active), f (inactive)

What was the test verdict on COC(=O)C(CC(C)C)NC(=O)C(N)Cc1ccc(OCc2ccccc2)cc1 (stereo not drawn) (H-Tyr(Bn)-Leu-OMe; configuration not given here) ? f

What is the recorded call for this compound in the test? CCCCCCCCCC(=O)N[C@H]1CCc2cc(OC)c(OC)c(OC)c2-c2ccc(SC)c(=O)cc21 t

What was the test verdict on COC(=O)c1c(O)ccc2c1c1c(n2Cc2ccc(OC)cc2)C(=O)c2ccccc2C1 ? f

Given COC(=O)CCc1cc(OC)c2oc(-c3ccc(OC)c(OC)c3)c(CO)c2c1 , state the outcome it received in this test. f

====

# System: SNB-19
# assayProtocol: NCI tumour cell line growth inhibition, 48 h
Calls of active or inactive are those of the source. No stated cut-off is given here; in the data, active = GI50 up to about 1.1 µM and inactive = higher.
So I've got a bunch of compounds here, and I need their GI50 values.

INSERT INTO results (compound, reportedresult) VALUES
  ('O=C(CN1CCN(c2ccccc2)CC1)N1CCc2c([nH]c3ccccc23)C1c1cccnc1 (centres undefined)', '38.2 µM (inactive)'),
  ('O=C1c2ccccc2OCC12OC21C=CC(Cl)=CC1 (centres undefined)', '29.8 µM (inactive)'),
  ('Nc1nc(O)c2c(ncn2CC(O)CO)n1 (centres undefined)', '> 100 µM (inactive)'),
  ('CCC(=N\NC(N)=S)/C(C)=N/O', '> 100 µM (inactive)'),
  ('CC(=O)/C(=N\O)C(=O)NCc1ccccc1', '> 100 µM (inactive)');

Please report GI50 for every entry that follows.
1. C=C(C)[C@@H](C(=O)OC)N1C(=O)c2ccccc2C1=O
2. C1=CC(=P(c2ccccc2)(c2ccccc2)c2ccccc2)C=C1
3. Cn1nc2ccc3nccc(NCCNCCO)c3c2n1
4. CC1=C(C(=O)Nc2ccccc2)C(c2ccc(N(C)C)cc2)C(C(=O)Nc2ccccc2)=C(C)N1
5. O=C(NCC(O)COc1ccccc1)c1ccccc1O (centres undefined)
6. Cc1cccc(C(C)C)c1NC(=O)CCl
7. Cc1cc(NS(=O)(=O)c2ccc(NC(=O)c3cccc4c(Nc5ccc(S(N)(=O)=O)cc5)c5ccccc5nc34)cc2)no1
8. O=[N+]([O-])C1C2C=CC(C2)[C@H]1c1ccco1 (some centres undefined)

1. > 100 µM (inactive)
2. 4.67 µM (inactive)
3. 73.5 µM (inactive)
4. 64.3 µM (inactive)
5. 91 µM (inactive)
6. 36.5 µM (inactive)
7. 97.3 µM (inactive)
8. > 100 µM (inactive)

State the recorded GI50 for every item in the following list.
1. N#CC(Cl)CS(=O)(=O)c1ccccc1 (centres undefined)
2. Cc1cc2c(=O)cc(-c3ccncc3)oc2c(C(=O)O)c1C

18.9 µM (inactive)
> 100 µM (inactive)

Please give GI50 for each item listed below.
1. COc1ccc2[nH]c(Cl)c(/C=C3/C(=O)N(c4ccccc4)c4ccccc43)c2c1
2. O=C(/C=C(\C(=O)c1cccs1)c1cccs1)c1ccc(C(=O)/C=C(\C(=O)c2cccs2)c2cccs2)cc1
3. CCOC(=O)C1=C(C)N(Cc2ccccc2)C2(O)C=CC(O)=C3C(=O)c4ccccc4C(=O)C312 (centres undefined)
4. COC(=O)c1ccc(/C=C2\Oc3ccccc3C2=O)cc1
5. C=C1C(=O)O[C@@H]2[C@H]1CC[C@H](C)[C@]1(O)CCC(=O)[C@@]21C [CORONOPILIN]
6. COc1nc(OC)nc(Sc2ccc(Sc3ccc(Sc4nc(OC)nc(OC)n4)cc3)cc2)n1
7. Nc1ccccc1N/C(=C\C(=O)C(Cl)(Cl)Cl)c1ccccc1
8. Brc1cc2nn(-c3ccccc3)nc2c2nonc12

1: 9.46 µM (inactive); 2: > 100 µM (inactive); 3: 26.5 µM (inactive); 4: > 100 µM (inactive); 5: > 10 µM (inactive); 6: > 100 µM (inactive); 7: 36.9 µM (inactive); 8: > 100 µM (inactive)

Hey, can you go through the list below and give me GI50 for every item?
1. Cc1ccc(/C=C/C(=N/NC(=O)N/N=C(/C=C/c2ccc(C)cc2)C(C)C)C(C)C)cc1
2. CO[C@@H]1C[C@H]2N3CC[C@@]2(c2cc4c(cc2C3)OCO4)[C@H]2O[C@@H]12
3. N=C1C=C(N)C(=O)c2[nH]c(=O)ccc21
4. O=C(Nc1ccc2nc(-c3ccccc3)cn2c1)Oc1ccccc1
5. NC(=O)Oc1ccccc1 [CARBAMIC ACID PHENYL ESTER]
6. Cc1cc2c(C)nn(Cc3ccc(Cl)cc3)c2c(C#N)c1C
7. CCCCc1c2c(nc3c1CCC/C3=C\c1ccccc1)C(=O)CCC2

> 10 µM (inactive)
> 100 µM (inactive)
2.02 µM (inactive)
73.6 µM (inactive)
> 100 µM (inactive)
63.5 µM (inactive)
20.1 µM (inactive)
